- targetOrTestSystem: Full-length mammalian calmodulin, residues 1–148 (rat) (rat, UniProt P0DP29 1-149)
- protocolSummary: fluorescence polarisation
Where no end group is shown, it is not given here.
experimentalReadout: Kd

The cases that follow already have their Kd on record.
{5,6‑carboxyfluorescein}-ATFLIQEYFRKFKKRKEQGLVGKPSQ [Fl-IQ′_(1650): IQ′_(1650) (residues 1650–1675 of Cav1.2 CTT) fluoresceinated at the N-terminus] :: ≤ 2 nM
{5,6‑carboxyfluorescein}-ELRAIIKKIWKRTSMKLLDQVV [Fl-C_(1614): C_(1614) (residues 1614–1635 of Cav1.2 CTT) fluoresceinated at the N-terminus] :: ≤ 2 nM

Consider the record given below.
Task item: Answer with the recorded Kd of {5,6‑carboxyfluorescein}-FNATLFALVRTALRIKTEGNLE [Fl-A_(1588): A_(1588) (residues 1588–1609 of Cav1.2 CTT) fluoresceinated at the N-terminus] only.
Reply: ≤ 2 nM
